ASSAY SUMMARY: qHTS for Inhibitors of human tyrosyl-DNA phosphodiesterase 1 (TDP1): qHTS in cells in presence of CPT; further: nearly all actives have a fitted effect of over 55% in size
CONDITIONS USED: chicken DT40 Tdp1-/-;hTDP1 cells + 20 nM CPT, ATP luminescence, 48 h; series mostly up to 46.2 µM
In all, about 420,000 compounds went through this assay and about 50,000 (12%) were called active. About 26% were inconclusive and are not listed. The call rests on the fitted dose curve; in most records, active means well fitted inhibition curve with a large enough effect; inconclusive means small, poorly fitted or top-dose-only effect; inactive means flat fitted curve, though single readings scatter. For the sample, actives were picked, then their nearest neighbours and some compounds at random.
Possible outcomes: 1 (yes) = active, 0 (no) = inactive

compound=O=C(O)CCn1c(SCc2cc(=O)n3ccccc3n2)nc2ccsc2c1=O answer_label="0 (no)"
compound=CCOc1ccc(NC(=O)CN(C)C(=O)Cn2c(=O)cnc3ccccc32)cc1OCC answer_label="0 (no)"
compound=Cc1ccc(C(=O)N2CCCC(c3ccccc3)=N2)cc1 answer_label="0 (no)"
compound=O=C(COc1cccc2c1CCNC2=O)NC1CCCCC1 answer_label="0 (no)"
compound=COc1ccccc1C(=O)NC(=S)Nc1ccc(N2CCOCC2)cc1 answer_label="0 (no)"
compound=COc1cc(OC)cc(C(=O)NCCSCc2ccc(Cl)cc2)c1 answer_label="0 (no)"
compound=COc1ccc(S(=O)(=O)N(C)CC(=O)N2CCCC2)cc1 answer_label="0 (no)"
compound=Cc1ccccc1C(=O)N1CCN(c2ccc(NC(=O)c3cccs3)cc2)CC1 answer_label="1 (yes)"
compound=CCOC(=O)c1ccc(NC(=S)Nc2cc(C)cc(C)n2)cc1 answer_label="0 (no)"
compound="Cc1ccccc1CCNC(=O)C1CCC(=O)N(Cc2ccc(Cl)cc2)C1 (configuration not stated)" answer_label="0 (no)"
compound="CCOC(=O)CCNC(=O)N1CCCC(C(=O)c2ccccc2SC)C1 (configuration not stated)" answer_label="0 (no)"
compound=Oc1ccccc1/C=N/n1c(-c2cccs2)n[nH]c1=S answer_label="0 (no)"
compound="O=C(NCCN1CCOC1=O)C1CCC(=O)N(CCc2ccc(Cl)cc2)C1 (configuration not stated)" answer_label="0 (no)"
compound=O=C(NC(=O)c1ccccc1N1CCCCC1)Nc1ccc(Br)cc1 answer_label="0 (no)"
compound=O=C(Nc1ccccc1Cl)N1CCC(CN2CCCC2)CC1 answer_label="0 (no)"
compound=CN(C)S(=O)(=O)c1ccc(Oc2ccc(S(=O)(=O)N(C)C)cc2)cc1 answer_label="1 (yes)"
compound="COc1cccc(-c2noc(C3CCCN(C(=O)c4ccc(F)cc4)C3)n2)c1 (configuration not stated)" answer_label="0 (no)"
compound="COc1ccc(NC(=O)C2CCCN(S(=O)(=O)c3cccc4nonc34)C2)cc1Cl (configuration not stated)" answer_label="0 (no)"
compound=COc1cc(OC)cc(C(=O)N[C@H](C(=O)Nc2nc3ccccc3[nH]2)C(C)C)c1 answer_label="1 (yes)"
compound=CCOc1ccc(S(=O)(=O)N2CCC(C(=O)OCc3ccc(OC)cc3)CC2)cc1 answer_label="0 (no)"
compound=CCS(=O)(=O)N1CCN(C(=O)c2cccs2)CC1 answer_label="0 (no)"
compound=Cc1ccc(NC(=O)CN2CCc3ccccc3C2)cc1 answer_label="0 (no)"
compound="CC(C)(C)c1ccc(C(CC(=O)O)NS(=O)(=O)Cc2ccccc2)cc1 (configuration not stated)" answer_label="0 (no)"
compound="Cc1ccccc1N1CCN(CCCN2C(=O)C3CCCCN3C2=O)CC1 (configuration not stated)" answer_label="0 (no)"
compound=NC(=O)c1ncn([C@@H]2O[C@H](CN=C3NS(=O)(=O)c4ccccc43)[C@@H](O)[C@H]2O)n1 answer_label="0 (no)"
compound=CN(C)c1ccc(/C=N/N(Cc2ccccc2)c2ccccc2)cc1 answer_label="0 (no)"
compound=CN(C)c1cc[n+](Cc2ccccc2)cc1 answer_label="1 (yes)"
compound="COc1cc(-c2noc(C3CCCN(S(=O)(=O)c4cccc(Cl)c4)C3)n2)cc(OC)c1OC (configuration not stated)" answer_label="1 (yes)"
compound=Cc1cccc(C(=O)Nc2ccc(Oc3cnccn3)cc2)c1 answer_label="0 (no)"
compound=CCCS(=O)(=O)N1CCN(C(=O)c2cccs2)CC1 answer_label="0 (no)"
compound=Cc1ccc2c(O)c(Cc3ccccc3)c(=O)[nH]c2n1 answer_label="0 (no)"
compound="CCC(=O)N1CCC(C)(C(=O)Nc2cc(OC)c(OC)c(OC)c2)C1 (configuration not stated)" answer_label="0 (no)"
compound=S=C(Cc1ccc(Cl)cc1)N1CCOCC1 answer_label="0 (no)"
compound=O=C(C[n+]1cc(-c2ccc(Cl)c(Cl)c2)n2c1CCC2)c1cccs1 answer_label="1 (yes)"
compound="CCNC(=O)N1CCCC(C(=O)c2ccc(-c3ccccc3)cc2)C1 (configuration not stated)" answer_label="1 (yes)"
compound="Cc1ccc(F)c(S(=O)(=O)NC(=O)C2(C)CCN2C(=O)CCc2cccs2)c1 (configuration not stated)" answer_label="0 (no)"
compound=O=C(Nc1ccc(N2CCN(C(=O)C3CC3)CC2)cc1)c1cccs1 answer_label="0 (no)"
compound=[O-][n+]1ccc(OCc2ccccc2)cc1 answer_label="0 (no)"
compound="CC(OC(=O)CCc1nc(=O)c2ccccc2n1C)C(=O)NCc1ccc2c(c1)OCO2 (configuration not stated)" answer_label="0 (no)"
compound="CC1CCC2(CC1)NC(=O)N(CC(=O)c1ccc3c(c1)OCO3)C2=O (configuration not stated)" answer_label="0 (no)"
compound=CCCCN(CC)C(=O)c1ccccc1Oc1ccccc1 answer_label="1 (yes)"
compound=O=[N+]([O-])c1ccc(O)c(/C=N/Nc2ccccc2[N+](=O)[O-])c1 answer_label="1 (yes)"

====

ASSAY SUMMARY: qHTS for Inhibitors of human tyrosyl-DNA phosphodiesterase 1 (TDP1): qHTS in cells in presence of CPT; further: nearly all actives have a fitted effect of over 55% in size
CONDITIONS USED: chicken DT40 Tdp1-/-;hTDP1 cells + 20 nM CPT, ATP luminescence, 48 h; series mostly up to 46.2 µM
Screen size: about 420,000 compounds; about 50,000 (12%) were called active. Roughly 26% stayed inconclusive and do not appear here. The call rests on the fitted dose curve; in most records, active means well fitted inhibition curve with a large enough effect; inconclusive means small, poorly fitted or top-dose-only effect; inactive means flat fitted curve, though single readings scatter. For the sample, actives were picked, then their nearest neighbours and some compounds at random.
Possible outcomes: True for active, False for inactive

molecule=CCOC(=O)N1CCC(N(CCOC)C(=O)Nc2ccc(C)c(C)c2)CC1 answer_label=False
molecule="CC1CCC(NC(=O)C2c3ccccc3C(=O)N2Cc2ccc3c(c2)OCO3)CC1 (centres undefined)" answer_label=False
molecule=CC(=O)c1ccc(Cc2ncc(C(F)(F)F)cc2Cl)s1 answer_label=False
molecule=COCCN(CCOC)S(=O)(=O)NC[C@H]1O[C@@H](n2cnc3c(N)ncnc32)[C@H](O)[C@@H]1O answer_label=False
molecule=Cc1c(NC(=O)CSc2nnnn2-c2ccc(C(=O)O)cc2)c(=O)n(-c2ccccc2)n1C answer_label=False
molecule=Cn1cnnc1Sc1ccc(S(C)(=O)=O)cc1[N+](=O)[O-] answer_label=False
molecule=O=C(CCn1nnc2ccccc2c1=O)N[C@@H](Cc1c[nH]c2ccccc12)C(=O)O answer_label=False
molecule="O=C(Nc1ccc2c(c1)OCCO2)C1c2ccccc2OCC(=O)N1Cc1ccccn1 (centres undefined)" answer_label=False
molecule=COc1ccc(CCNC(=O)COC(=O)c2ncc(Cl)c(Cl)c2Cl)cc1OC answer_label=False
molecule=CSc1ccc(CCNC(=O)c2cnn(-c3ccccc3)c2-n2cccc2)cc1 answer_label=True
molecule="Cc1ccccc1N(C(=O)Cc1cccs1)C(C(=O)NC1CCCCC1)c1cn(C)nc1C (centres undefined)" answer_label=False
molecule=Cc1c(C(=O)NCc2ccccc2)cnn1-c1ccccc1 answer_label=False
molecule=CCCN1CCN(CCCNC(=O)c2cnn(-c3ccc(C)cc3)c2-n2cccc2)CC1 answer_label=False
molecule=O=S(=O)(c1ccc(F)cc1)N1CC=C(c2ccccc2)CC1 answer_label=False

====

ASSAY SUMMARY: qHTS for Inhibitors of human tyrosyl-DNA phosphodiesterase 1 (TDP1): qHTS in cells in presence of CPT; further: nearly all actives have a fitted effect of over 55% in size
CONDITIONS USED: chicken DT40 Tdp1-/-;hTDP1 cells + 20 nM CPT, ATP luminescence, 48 h; series mostly up to 46.2 µM
Screen size: about 420,000 compounds; about 50,000 (12%) were called active. Not shown: some 26% with an inconclusive outcome. Calls come from the whole dose curve; as a rule, active = well fitted inhibition curve with a large enough effect; inconclusive = small, poorly fitted or top-dose-only effect; inactive = flat fitted curve, though single readings scatter. Many of the other results were omitted from the sample, so actives are more common in it than they were.
Possible outcomes: true (1) (active), false (0) (inactive)

compound=O=S1(=O)CCOC[C@H](CC2CCCCC2)N1Cc1ccc(F)cc1 answer_label="true (1)"
compound=CCOC(=O)CSc1nnc(CNc2ccc(F)cc2)o1 answer_label="false (0)"
compound=NC(=O)COc1ccc2c3c(c(=O)oc2c1)CCCCC3 answer_label="false (0)"
compound="CCN(CC)C(=O)C1CCCN(Cc2cccc(Cl)c2)C1 (stereo unspecified)" answer_label="false (0)"
compound=OCC1(CO)CC2(C1)CC(CO)(CO)C2 answer_label="false (0)"
compound="CCC(C)[C@H]1COCCS(=O)(=O)N1Cc1ccc(C)cc1 (stereo partly specified)" answer_label="false (0)"
compound=CCCC[C@H]1COCCS(=O)(=O)N1Cc1cccc(Cl)c1 answer_label="false (0)"
compound="CN(C(=O)c1ccc2c(c1)N(Cc1cccc(Cl)c1)C(=O)c1ccccc1S2=O)C1CCCCC1 (stereo unspecified)" answer_label="true (1)"
compound=O=C(CN1C(=O)c2ccccc2C1=O)NCc1ccc(C(=O)O)cc1 answer_label="false (0)"
compound=CCC(=O)Nc1ccc(C(=O)CSc2nnc(CNc3ccc(Cl)cc3)o2)cc1OC answer_label="true (1)"
compound="O=C(O)c1ccc2c(c1)N(Cc1ccc(F)cc1)C(=O)c1ccccc1S2=O (stereo unspecified)" answer_label="true (1)"
